system-tested: S1S23
Sequence (O00161 whole entry): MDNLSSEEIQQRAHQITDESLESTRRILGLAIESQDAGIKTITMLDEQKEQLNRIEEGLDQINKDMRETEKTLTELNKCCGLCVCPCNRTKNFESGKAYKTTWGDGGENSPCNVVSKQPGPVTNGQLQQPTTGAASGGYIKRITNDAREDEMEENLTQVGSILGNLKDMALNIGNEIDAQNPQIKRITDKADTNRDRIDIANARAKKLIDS
endpoint: Tm (°C)
Numbers only here, please. The scale is °C.

* VAMP5 (protein) VAMP5: AGKELKQCQQQADEVTEIMLNNFDKVLERHGKLAELEQRSDQLLDMSSAFSKTTKTLAQQKRWENIRCR | 55
* VAMP4 (protein) VAMP4: PPKFKRHLNDDDVTGSVKSERRNLLEDDSDEEEDFFLRGPSGPRFGPRNDKIKHVQNQVDEVIDVMQENITKVIERGERLDELQDKSESLSDNATAFSNRSKQLRRQMWWRGCK | 60
* VAMP8 (protein) VAMP8: EEASGSAGNDRVRNLQSEVEGVKNIMTQNVERILSRGENLDHLRNKTEDLEATSEHFKTTSQKVARKFWWKNVK | 57

Note: attention shifts to another entry.
Using the record for VAMP7 (protein) VAMP7: AILFAVVARGTTILAKHAWCGGNFLEVTEQILAKIPSENNKLTYSHGNYLFHYICQDRIVYLCITDDDFERSRAFSFLNEVKKRFQTTYGSRAQTALPYAMNSEFSSVLAAQLKHHSENKSLDKVMETQAQVDELKGIMVRNIDLVAQRGERLELLIDKTENLVDSSVTFKTTSRNLARAMCMKNIK , report its Tm.
57
